src = patent US20100222559

biological target: glutathione-S-transferase (GST) (Schistosoma japonicum, UniProt P08515 P08515:2-218); assay: filter; specificity control, 100 nM protein; conditions: tags: prepared in laboratory from GE vector; chain copies: 2; label: 32P (filter assay)
Sequence (P08515 2-218, one chain of several): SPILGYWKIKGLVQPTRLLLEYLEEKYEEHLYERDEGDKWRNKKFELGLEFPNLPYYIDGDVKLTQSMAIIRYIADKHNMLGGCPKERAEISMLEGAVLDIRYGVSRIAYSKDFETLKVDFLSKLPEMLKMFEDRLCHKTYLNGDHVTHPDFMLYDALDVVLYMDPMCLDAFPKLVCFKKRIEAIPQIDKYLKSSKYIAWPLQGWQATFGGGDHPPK
value type: binding signal (% bound)
Numbers only, in % bound.

Answer with the recorded binding signal for the binder listed here: SEQ ID NO: 2 RNA aptamer (ssRNA) RNA: GGGAGAAUUCCGACCAGAAGUUUUUAAACCGCGCCUUGGAAGCGUACGUUGGCCUUUCCUCUCUCCUCCUUCUUCU
0.6

Answer with the recorded binding signal for the binder listed here: SEQ ID NO: 3 RNA aptamer (ssRNA) RNA: GGGAGAAUUCCGACCAGAAGCAAAUUGCCGGGCCUUGGAAGCCAAGUCGCUUUCCUCUCUCCUCCUUCUUCU
0.6

Answer with the recorded binding signal for the binder listed here: SEQ ID NO: 1 RNA aptamer (ssRNA) RNA: GGGAGAAUUCCGACCAGAAGAAGUUCGAUACGCCGUGGGGUGACGUUGGCUGCCCUUUCCUCUCUCCUCCUUCUUCU
0.7

Answer with the recorded binding signal for the binder listed here: SEQ ID NO: 5 RNA aptamer (ssRNA) RNA: GGGAGAAUUCCGACCAGAAGUUCGAUACGCCGUGGGGUGACGUUGGCUACCUUUCCUCUCUCCUCCUUCUUCU
0.6

Please turn your attention to the following entry.
Answer with the recorded binding signal for the binder listed here: SEQ ID NO: 4 RNA aptamer (ssRNA) RNA: GGGAGAAUUCCGACCAGAAGCGCAAGCCGGCCCUUGGAAGGCUAGUCGGUCUUUCCUCUCUCCUCCUUCUUCU
0.4
